Read-out: Lipase C (LIPC), LIPC (gene 3990)
Assay comment: LTEA_HepaRG_LIPC: Life Technologies and Expression Analysis (LTEA) Assay for Lipase C (LIPC) using HepaRG (AID 2283514)
Details: mRNA level, 48 h; actives raise or lower the signal
Calls of active or inactive are those of the source. The calls were made as follows: active = hit-call score of the fitted dose curve at least 0.9, where 1 is the maximum; inactive = score below 0.9.
Form entry, call: pick from active, inactive

Request: Returns: the outcome recorded for CC/C(=C\C(=N/O)C(N)=O)C(C)[N+](=O)[O-] (stereo unspecified) in this assay.
Response: inactive

Request: Follow-up item: CC[C@H](C)C(=O)O[C@H]1C[C@@H](C)C=C2C=C[C@H](C)[C@H](CC[C@@H]3C[C@@H](O)CC(=O)O3)[C@H]21
Response: inactive

Request: Follow-up item: C[C@](N)(Cc1ccc(O)c(O)c1)C(=O)O
Response: inactive

Request: Follow-up item: O=C(O)c1cccc(N(Cc2cccnc2)c2ccc(OC(F)F)c(OC(F)F)c2)c1
Response: inactive

Request: Follow-up item: Nc1ccc(Nc2ccccc2)cc1
Response: active

Request: Follow-up item: CC(C)=CCC/C(C)=C\CO
Response: inactive
